# experimental_system: cynomolgus monkey DLL4 extracellular domain (cynomolgus monkey)
# method_notes: binding ELISA
quantity: EC50 (nM)
# output: bare number, implied unit nM

Guide cases for EC50, answers given:
binder: h1A11.5 (antibody, V domains shown) VH: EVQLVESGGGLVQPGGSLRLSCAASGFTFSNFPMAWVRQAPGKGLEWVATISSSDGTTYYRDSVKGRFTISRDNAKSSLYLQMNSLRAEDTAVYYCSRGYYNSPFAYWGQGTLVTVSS VL: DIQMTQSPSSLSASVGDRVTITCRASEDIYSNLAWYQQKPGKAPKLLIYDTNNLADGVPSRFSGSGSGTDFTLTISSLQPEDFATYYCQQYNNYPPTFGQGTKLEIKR
EC50 / nM: 0.16
//
binder: h1A11.4 (antibody, V domains shown) VH: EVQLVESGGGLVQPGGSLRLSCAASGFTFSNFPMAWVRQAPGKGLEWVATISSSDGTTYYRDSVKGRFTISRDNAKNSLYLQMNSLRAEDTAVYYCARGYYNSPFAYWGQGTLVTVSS VL: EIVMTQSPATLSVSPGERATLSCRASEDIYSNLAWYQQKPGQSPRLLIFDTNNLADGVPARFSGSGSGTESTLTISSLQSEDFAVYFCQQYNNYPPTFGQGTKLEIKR
EC50 / nM: 0.17
//
binder: h1A11.1 (antibody, V domains shown) VH: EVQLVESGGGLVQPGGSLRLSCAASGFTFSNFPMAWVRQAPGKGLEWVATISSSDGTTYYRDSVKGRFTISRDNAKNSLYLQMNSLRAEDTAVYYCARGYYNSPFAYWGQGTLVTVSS VL: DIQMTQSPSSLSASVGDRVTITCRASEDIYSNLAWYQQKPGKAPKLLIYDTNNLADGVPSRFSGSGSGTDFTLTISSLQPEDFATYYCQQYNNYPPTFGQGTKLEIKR
EC50 / nM: 0.13
//
binder: h1A11.16 (antibody, V domains shown) VH: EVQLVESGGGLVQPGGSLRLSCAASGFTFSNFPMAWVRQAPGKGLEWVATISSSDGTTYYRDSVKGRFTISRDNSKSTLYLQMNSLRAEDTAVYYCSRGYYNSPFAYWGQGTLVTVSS VL: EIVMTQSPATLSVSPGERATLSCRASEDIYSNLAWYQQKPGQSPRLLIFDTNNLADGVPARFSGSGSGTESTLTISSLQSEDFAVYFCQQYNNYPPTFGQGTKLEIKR
EC50 / nM: 0.12

Next item in the queue.
Could you share which EC50 value was measured for h1A11.9 (antibody, V domains shown) VH: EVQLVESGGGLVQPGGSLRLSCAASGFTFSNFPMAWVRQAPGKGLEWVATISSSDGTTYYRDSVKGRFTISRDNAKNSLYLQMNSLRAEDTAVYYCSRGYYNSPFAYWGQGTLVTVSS VL: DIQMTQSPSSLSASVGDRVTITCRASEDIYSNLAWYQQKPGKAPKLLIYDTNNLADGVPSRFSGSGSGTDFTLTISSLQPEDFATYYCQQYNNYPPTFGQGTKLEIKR ?
0.15

Values were extracted from patent US20160031986A1.
